binding percentage vs wild-type CLDN18.2 for assorted binders
testSystem: human CLDN18.2-mRFP G65P (human)
Sequence (chain, as listed by the source G65P G65P limits assumed): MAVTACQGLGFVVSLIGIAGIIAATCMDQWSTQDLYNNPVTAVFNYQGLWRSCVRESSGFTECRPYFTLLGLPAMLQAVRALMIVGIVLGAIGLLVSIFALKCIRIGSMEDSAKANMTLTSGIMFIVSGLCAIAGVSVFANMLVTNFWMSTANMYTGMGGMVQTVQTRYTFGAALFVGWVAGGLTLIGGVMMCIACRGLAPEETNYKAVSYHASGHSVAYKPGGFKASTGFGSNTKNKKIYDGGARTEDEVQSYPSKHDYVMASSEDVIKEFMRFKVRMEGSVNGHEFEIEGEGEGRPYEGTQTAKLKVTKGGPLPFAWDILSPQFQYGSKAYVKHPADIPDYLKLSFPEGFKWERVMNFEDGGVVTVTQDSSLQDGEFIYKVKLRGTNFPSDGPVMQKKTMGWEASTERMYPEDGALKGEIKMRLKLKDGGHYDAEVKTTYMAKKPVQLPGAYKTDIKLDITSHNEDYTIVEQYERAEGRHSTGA
assaySummary: FACS, transfected HEK293, 10 µg/ml antibody;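 further: antibody binding read by flow cytometry with a FITC-labelled anti-human IgG secondary, gated on RFP-positive cells, each mutant signal expressed against wild-type CLDN18.2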
Record the value in %, omitting the unit from your answer.

[ask] Give reported binding percentage vs wild-type CLDN18.2 value for 26G6-C (antibody, human IgG1, V domains shown, also called chimeric 26G6) VH: EFQLQQSGPELEKPGASVKISCKTSGYSFTGYNMNWVKQSNGQSLEWIGHIDPYYVTTTYNQKFRGKATLTVDKSSSTAYMQLKSLTSEDSAVYYCARSFYGNAFDYWGQGTTLTVSS VL: DIVMTQSPSSLTVTAGEKVTMSCKSSQSLFNSGNQKNYLTWYQQKPGQPPKLLIYWASTRESGVPDRFTGSGSGTDFTLTISSVQAEDLAVYYCQNDYSFPFTFGSGTKLEIK
[reply] 119

Here's the next entry for you.
[ask] Give reported binding percentage vs wild-type CLDN18.2 value for 18B10-C (antibody, human IgG1, V domains shown, also called chimeric 18B10) VH: EFQLQQSGPELEKPGASVRISCKTSGYSFTGYNMNWVKQSNGESLEWIGNIDPYYGGTSYNQKFKGKATLTVDKSSSTAYMQLKSLTSEDSAVYYCARMYHGNAFDYWGQGTTLTVSS VL: DIVMTQSPSSLTVTAGEKVTMSCKSSQSLLNSGNLKNYLTWYQQKPGQPPKLLIYWASTRKSGVPDRFTGSGSGTDFTLTLSSVQAEDLAVYYCQNDYSYPLTFGAGTKLELK
[reply] 118
